# Test system: 786-0
# measurementNotes: NCI tumour cell line growth inhibition, 48 h
Calls of active or inactive are those of the source. No stated cut-off is given here; in the data, active = GI50 up to about 1.1 µM and inactive = higher.
# GI50 annotations

# molecule, measurementName, result
rows = [
    ("C1CSC(=[N+]2CC[N+](=C3SCCS3)CC2)S1", "GI50", "> 100 µM (inactive)"),
    ("OCC1C(OCc2ccccc2)C(OCc2ccccc2)C(OCc2ccccc2)CN1Cc1ccccc1 (centres undefined)", "GI50", "26.3 µM (inactive)"),
    ("CC(=O)Nc1ccc(Nc2cc(=O)n(C)c(=O)[nH]2)cc1", "GI50", "> 100 µM (inactive)"),
]

Note to self: GI50 recorded for CC(=O)c1ccc2c(c1)CC1(C2)Cc2ccccc2C1=O (centres undefined) was 77.8 µM (inactive)

Every entry's value here was drawn from ChEMBL document CHEMBL1201862.
